Taken from paper PMC12163657.

# experiment_description: Single-dose pharmacokinetics, rat
# Format: in vivo
# stated_conditions: Sprague-Dawley, serum, iv, 0.5 mg/kg
measured_attribute: Vd
The reply should read as a number followed by its unit.

Read off the recorded Vd for CCCN1CC(Oc2ccc([C@@H]3c4[nH]c5ccccc5c4C[C@@H](C)N3CC(C)(C)F)cc2)C1 [compound 21]
8 L/kg

---

# experiment_description: Human hepatocyte stability
# Type: in vitro ADME
# stated_conditions: hepatocytes
What hepatocyte CLint was measured for each of the following?
Your answer should be a plain number; it is taken to be in µL/min/1e6 cells.

Please give measured hepatocyte CLint of the following entry: `C[C@@H]1Cc2c([nH]c3ccccc23)[C@@H](c2ccc(OCCN3CC(CF)C3)cc2)N1CC(C)(C)F`
6.1

Return value of hepatocyte CLint for input `CCCN1CC(Oc2ccc([C@@H]3c4[nH]c5ccccc5c4C[C@@H](C)N3C[C@@H](C)CO)cc2)C1` , no commentary.
8.8

Quickly give me recorded hepatocyte CLint for `C[C@@H]1Cc2c([nH]c3ccccc23)[C@@H](c2ccc(OCCN3CC(CF)C3)c(F)c2)N1CC(C)(C)F`
5.1

Provide one value: measured hepatocyte CLint of `CCCN1CC(Oc2cc(F)c([C@@H]3c4[nH]c5ccccc5c4C[C@@H](C)N3CC(C)(C)F)c(F)c2)C1`
4.3

---

Hi there, I'd appreciate the recorded IC50 for every entry that follows.
# subject_of_test: ERα LBD (Homo sapiens, UniProt P03372)
# Sequence (P03372 311-547 limits assumed): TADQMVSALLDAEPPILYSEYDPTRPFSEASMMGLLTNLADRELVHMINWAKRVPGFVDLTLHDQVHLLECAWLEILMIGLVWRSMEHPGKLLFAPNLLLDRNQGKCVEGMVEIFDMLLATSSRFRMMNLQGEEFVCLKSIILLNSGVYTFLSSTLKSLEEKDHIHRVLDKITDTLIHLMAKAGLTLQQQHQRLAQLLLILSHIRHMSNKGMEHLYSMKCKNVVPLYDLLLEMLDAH

Consider the compound CCCN1CC(Oc2ccc([C@@H]3c4[nH]c5ccccc5c4C[C@@H](C)N3CC(F)(F)CO)cc2)C1 [compound 38] tested on ERα LBD (Homo sapiens, UniProt P03372); state its IC50.
1 nM

Lab note: record IC50 of C[C@@H]1Cc2c([nH]c3ccccc23)[C@@H](c2ccc(CCCN3CC(CF)C3)cc2)N1CC(C)(C)F [compound 22] tested on ERα LBD (Homo sapiens, UniProt P03372).
1.58 nM

Quote IC50 with test system ERα LBD (Homo sapiens, UniProt P03372) for CCCCCN1CC(Oc2ccc([C@@H]3c4[nH]c5ccccc5c4C[C@@H](C)N3CC(C)(C)F)cc2)C1 [compound 36]
2.51 nM

Provide measured IC50 on ERα LBD (Homo sapiens, UniProt P03372) for C[C@@H]1Cc2c([nH]c3ccccc23)[C@@H](c2ccc(OCCN3CC(CF)C3)cc2)N1CC(C)(C)F [compound 23] please.
1.58 nM

GET IC50 | system: ERα LBD (Homo sapiens, UniProt P03372) | item: CCN1CC(Oc2ccc([C@@H]3c4[nH]c5ccccc5c4C[C@@H](C)N3CC(C)(C)F)cc2)C1 [compound 34]
0.501 nM

Jot down IC50 (ERα LBD (Homo sapiens, UniProt P03372)) of CCCCN1CC(Oc2ccc([C@@H]3c4[nH]c5ccccc5c4C[C@@H](C)N3CC(C)(C)F)cc2)C1 [compound 35] .
1.58 nM

Enter IC50 (test system ERα LBD (Homo sapiens, UniProt P03372)) for C[C@@H]1Cc2c([nH]c3ccccc23)[C@@H](c2ccc(OC3CN(C)C3)cc2)N1CC(C)(C)F [compound 33]
0.501 nM
